- tested target: Human immunodeficiency virus type 1 protease (Human immunodeficiency virus 1, UniProt Q72874)
pKi: −log10 of the molar value.
Classify by measured pKi: Criterion met if it is equal to or exceeds 8, Criterion not met if it is smaller.

Consider the following illustrative entries.
>>> group_label("CC[C@H](C)[C@H](NC(=O)[C@H](C(C)C)[C@@H](O)[C@H](O)[C@H](CC(C)C)NC(=O)[C@H](Cc1c[nH]cn1)NC(=O)[C@@H](Cc1ccccc1)NC(=O)OC(C)(C)C)C(=O)NCc1ccccn1")
"Criterion not met"
>>> group_label("CC[C@H](C)[C@H](NC(=O)[C@H](C(C)C)[C@@H](O)[C@H](O)[C@H](CC(C)C)NC(=O)[C@H](Cc1c[nH]cn1)NC(=O)COc1ccccc1)C(=O)NCc1ccccn1")
"Criterion met"
>>> group_label("CC[C@H](C)[C@H](NC(=O)[C@H](C(C)C)[C@@H](O)[C@H](O)[C@H](CC(C)C)NC(=O)[C@H](Cc1c[nH]cn1)NC(=O)COc1cccc2ccccc12)C(=O)NCc1ccccn1")
"Criterion met"
>>> group_label("CC[C@H](C)[C@H](NC(=O)[C@@H](CC(C)C)[C@@H](O)[C@H](O)[C@H](CC(C)C)NC(=O)[C@H](Cc1c[nH]cn1)NC(=O)COc1cccc2ccccc12)C(=O)NCc1ccccn1")
"Criterion not met"

# check: pKi of CC[C@H](C)[C@H](NC(=O)[C@H](C(C)C)[C@@H](O)[C@H](O)[C@H](CC1CCCCC1)NC(=O)[C@H](Cc1c[nH]cn1)NC(=O)CO)C(=O)NCc1ccccn1 is greater than or equal to 8
Criterion met

API: above_or_equal(metric=pKi, cutoff=8) for item CC[C@H](C)[C@H](NC(=O)[C@H](C(C)C)[C@H](O)[C@H](O)[C@H](CC(C)C)NC(=O)[C@H](Cc1c[nH]cn1)NC(=O)[C@@H](Cc1ccccc1)NC(=O)OC(C)(C)C)C(=O)NCc1ccccn1
Criterion not met

Does CC[C@H](C)[C@H](NC(=O)[C@H](C(C)C)[C@@H](O)[C@H](O)[C@H](CC1CCCCC1)NC(=O)CC1CCCCC1)C(=O)NCc1ccccn1 have a reported pKi of at least 8?
Criterion not met

Hi, just wondering whether CC[C@H](C)[C@H](NC(=O)[C@H](CC(C)C)[C@@H](O)[C@H](O)[C@H](CC1CCCCC1)NC(=O)[C@H](Cc1c[nH]cn1)NC(=O)COc1cccc2ccccc12)C(=O)NCc1ccccn1 shows pKi of 8 or higher.
Criterion met

Item CC[C@H](C)[C@H](NC(=O)[C@H](CC1CCCCC1)[C@@H](O)[C@H](O)[C@H](CC1CCCCC1)NC(=O)[C@H](Cc1c[nH]cn1)NC(=O)COc1cccc2ccccc12)C(=O)NCc1ccccn1 with pKi of 8 or above?
Criterion not met
